Provide the recorded log10 Koc (L/kg) for the entries that follow.

# substance-smiles, log10 Koc (L/kg)
data = [
    ("CN1CSC(=S)N(C)C1", 1),
    ("CCOP(=S)(OCC)OCCSCC", 2.59),
    ("COc1c(O)cc(Cl)c(Cl)c1Cl", 2.8),
]

Go through the items and report each one's log10 Koc (L/kg).
1. CNC(=O)ON=C(C)SC
2. Cc1ccc(O)cc1
3. c1ccc(N=Nc2ccccc2)cc1
4. Cc1cccc(C)c1C

## Output
1: 1.3; 2: 2.7; 3: 3.3; 4: 2.8

---

Provide the recorded melting point for the entries that follow.
Answers are plain numbers, in °C.

# compound, measured-number
data = [
    ("NS(=O)(=O)c1cc2c(cc1Cl)NC(Cc1ccc(F)cc1)NS2(=O)=O (stereo not drawn)", 239),
]

Go through the items and report each one's melting point.
1. Cc1ccc2[nH]nnc2c1
2. CNc1ccc([N+](=O)[O-])cc1
3. O=C(O)c1ccc(-c2ccccc2)cc1
4. Nc1ccnc(N)c1
5. CC(=O)Nc1ccccc1O
6. Cc1ccc(S(=O)(=O)Oc2c(C(=O)c3ccc(Cl)cc3Cl)c(C)nn2C)cc1
7. CCCCCCC=O
8. CCCCCOC(=O)CCC(=O)OCCCCC

## Output
1. 81
2. 152
3. 228
4. 107
5. 208
6. 118
7. -43.3
8. -10.8

Go through the items and report each one's melting point.
1. CCCCCCCCCCCl
2. C=C[C@H]1CN2CCC1C[C@@H]2[C@@H](O)c1ccnc2ccccc12 (stereo partly drawn)
3. Cc1cc(N)c2ncccc2c1
4. COC(=O)c1c(Cl)c(Cl)c(C(=O)OC)c(Cl)c1Cl

## Output
1. -31.3
2. 238
3. 73
4. 155

Go through the items and report each one's melting point.
1. O=c1cnn([C@@H]2O[C@H](CO)[C@@H](O)[C@H]2O)c(=O)[nH]1
2. O=[N+]([O-])c1ccc(Nc2ccccc2)c([N+](=O)[O-])c1

## Output
158
159

Go through the items and report each one's melting point.
1. COc1nc(C)nc(NC(=O)NS(=O)(=O)c2ccccc2Cl)n1
2. FC(Cl)=C(F)Cl
3. CCCC(=O)Cl

## Output
[176, -130, -89]
